Assay: NCI Yeast Anticancer Drug Screen. Data for the cln2 rad14 strain (AID 165);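 note: 0% = growth equal to vehicle treated cultures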
Details: S. cerevisiae cln2 rad14 strain, at 50.0 µM, hits give high values
About 79,000 compounds went through this panel and 15% of them were active in at least one assay; those are over-represented in the sample as a whole.
Listed here are molecules together with their documented growth inhibition.
property: growth inhibition (%)

| molecule | meas.value |
| --- | --- |
| CN1CN(c2ccccc2)C2(CCN(CCc3cc4ccccc4o3)CC2)C1=O | -28.9 |
| C1CCN2CC3CONC3C2C1 (stereo not given) | 13.7 |
| S=C([SH2+])[SH2+].S=C([SH2+])[SH2+].[Pt+2].c1ccc(C[P+](c2ccccc2)(c2ccccc2)c2ccccc2)cc1 | -16.6 |
| N=P(c1ccccc1)(c1ccccc1)c1ccccc1.[Cr+6].[N-]=C=S.[N-]=C=S.[N-]=C=S.[N-]=C=S.[NH2-].[NH2-] | -3.35 |
| COc1cc(OC)c(SC)cc1CC(C)N (stereo not given) | -16.1 |
| O=C(N/N=C/c1cc(Cl)cc(Cl)c1[O-])c1ccccc1O.O=C(N/N=C/c1cc(Cl)cc(Cl)c1[O-])c1ccccc1O.[Ni+2] | -41.2 |
| [N-]=[N+]=CC(=O)c1ccc(Cl)cc1 | -16.5 |
| [Cl][Hg][Cl].c1ccc(N=P(c2ccccc2)(c2ccccc2)c2ccccc2)cc1 | 99.5 |
| c1cc2c(cc1NC1=NCCO1)OCO2 | 0.7 |
| CC(C)CNC12CN3CN(CN(C3)C1)C2 | -27.9 |
| COC(=O)CCSP(=S)(Oc1ccccc1)Oc1ccccc1 | 4.25 |
| O=C1c2ccccc2C2(O)C3C=CCCN3CN12 (stereo not given) | 4.15 |
| O=C(O)C(F)(F)F.O=C(O)C(F)(F)F.[C-]#[O+].[Ru].c1ccc([PH+](c2ccccc2)c2ccccc2)cc1.c1ccc([PH+](c2ccccc2)c2ccccc2)cc1 | -7.45 |
| COc1ccc2c(c1)C1(C=N2)CCN(C(C)=O)CC1 | 17.1 |
| CCOC(=O)C1C2(C)NC(=O)C1(Cc1ccccc1)c1cc(C)c(C)cc1O2 (stereo not given) | -6.15 |
| O=C(O)C(CSC(c1ccccc1)(c1ccccc1)c1ccccc1)N1C(=O)c2ccccc2C1=O (stereo not given) | 96.8 |
| COc1cc(C=Nc2ccc(C(=O)O)c(O)c2)ccc1N(CCCl)CCCl | 41 |
| CC([Se])=Nc1ccc(Br)cc1 | -8.9 |
| O=C(N/N=C/c1ccc(N(CCCl)CCCl)cc1)c1ccc(N(CCCl)CCCl)cc1 | 37.8 |
| CCOC(=O)C(Cc1c[nH]c2ccccc12)NC(=O)/C=C/N(CCCl)CCCl (stereo not given) | 0.25 |
| COC(=O)c1cncn1C(C)c1cccc2ccccc12 (stereo not given) | 59 |
| Nc1cc(S(=O)(=O)F)cc(Cl)c1O | -61.2 |
| C1CN([PH+](N2CC2)N2CC2)CCO1.C1CN([PH+](N2CC2)N2CC2)CCO1.[Cl][Pt][Cl] | -8.85 |
| C[C@]12CC[C@H]3[C@@H](CCC4=C[C@@H](OC5OCC(OC6OC(CO)C(O)C(O)C6O)C(O)C5O)CC[C@@]43C=O)[C@@]1(O)CCC2C1=CC(=O)OC1 (stereo not given in full) | -4.1 |
| Cn1c2c(c3ccccc31)CCN1OCC=C[C@@H](C(=O)O)[C@@H]21 | 5.55 |
| Cc1cc(NC(=O)CCc2ccc(N)cc2)ccc1S(=O)(=O)F | 81.8 |
| O=C(c1ccccc1)c1c(CC(O)c2ccccc2)n(C(=O)c2ccccc2)c2ccccc12 (stereo not given) | -67.2 |
| Brc1ccc(-c2csc3c4ccccc4cc[n+]23)cc1 | -2.45 |
| CC(=O)Nc1nn[nH]n1 | 6.95 |
| C[C@]12CC[C@@H]3C4=CC(=O)CC[C@@H]4CC[C@H]3[C@@H]1CC[C@@H]2O | -8.45 |
| Oc1c(Cl)cc(Cl)cc1C1N(Cc2ccc(N(CCCl)CCCl)cc2Cl)CCCN1Cc1ccc(N(CCCl)CCCl)cc1Cl | -6 |
| CCOP(=O)(OCC)/C(C#N)=C/C=C/c1ccco1 | 4.2 |
| COC12c3ccccc3-c3ccccc3C1[C@@H](C(=O)O)[C@H]2C(=O)O (stereo not given in full) | -14 |
| Cc1ccccc1NC(N)=S | 1.55 |
| [N-]=[N+]=NC(=O)Nc1ccccc1F | -19.3 |
